Could you please report measured pIC50 for the items listed next?
# Test system: NCI-H69 (H69) cell line
# test-summary: Cell viability assay for NCI-H69 cell line
# Format: cell-based
# condition-details: Homo sapiens, NCI-H69, 120 h, 5 days, EZ-Cytox, 0.46-3000 nM
pIC50: −log10 of the molar value.

What value of pIC50 on NCI-H69 (H69) cell line does CC[C@@H]1C(=O)N(C)c2cnc(Nc3ccc(C(=O)NC4CCC(N5CCN(CCNc6cccc7c6CN(C6CCC(=O)NC6=O)C7=O)CC5)CC4)cc3OC)nc2N1C1CCCC1 (stereo partly drawn) have? > 7.70

Value wanted: pIC50 (NCI-H69 (H69) cell line) of entry COc1cc(C(=O)NC2CCN(C(=O)CCN3CCN(c4ccc(NC5CCC(=O)NC5=O)cc4F)CC3)CC2)ccc1Nc1ncc2c(n1)N(C1CCCC1)CC(F)(F)C(=O)N2C (stereo not drawn) ≥ 7.30

Lookup: pIC50 / NCI-H69 (H69) cell line / CC[C@@H]1C(=O)N(C)c2cnc(Nc3ccc(C(=O)NC4CCC(N5CCC(NCc6cccc7c6CN(C6CCC(=O)NC6=O)C7=O)CC5)CC4)cc3OC)nc2N1C1CCCC1 (stereo partly drawn) ≥ 7.00

API: value(readout=pIC50, system=NCI-H69 (H69) cell line) for record CC[C@@H]1C(=O)N(C)c2cnc(Nc3ccc(-c4nnc(CNC5CCN(C(=O)C(N)CN6CCN(c7ccc(C8CCC(=O)NC8=O)cc7)CC6)CC5)o4)cc3OC)nc2N1C1CCCC1 (stereo partly drawn) ≥ 7.00

Report pIC50 for CC[C@@H]1C(=O)N(C)c2cnc(Nc3ccc(C(=O)NC4CCN(C(=O)C(N)CN5CCN(c6cccc7c6C(=O)N(C6CCC(=O)NC6=O)C7=O)CC5)CC4)cc3OC)nc2N1C1CCCC1 (stereo partly drawn) tested on NCI-H69 (H69) cell line. ≥ 7.00

Param readout = pIC50; param system = NCI-H69 (H69) cell line; param query = CC[C@@H]1C(=O)N(C)c2cnc(Nc3ccc(C(=O)NC4CCC(N5CCN(CCNc6ccc(C7CCC(=O)NC7=O)cc6)CC5)CC4)cc3OC)nc2N1C1CCCC1 (stereo partly drawn) ; response: value > 7.70

Give recorded pIC50 with NCI-H69 (H69) cell line for the following molecule: CC[C@@H]1C(=O)N(C)c2cnc(Nc3ccc(C(=O)NC4CCN(C(=O)CCN5CCN(c6ccc(NC7CCC(=O)NC7=O)cc6)CC5)CC4)cc3OC)nc2N1C1CCCC1 (stereo partly drawn) > 7.70

State its pIC50 on NCI-H69 (H69) cell line: CC[C@@H]1C(=O)N(C)c2cnc(Nc3ccc(C(=O)NC4CCC(N5CCC(CNc6ccc(C7CCC(=O)NC7=O)cc6)CC5)CC4)cc3OC)nc2N1C1CCCC1 (stereo partly drawn) > 7.70

Quick check: pIC50 on NCI-H69 (H69) cell line, item CC[C@@H]1C(=O)N(C)c2cnc(Nc3ccc(C(=O)NN4CCC(N5CCC(CNc6ccc(C7CCC(=O)NC7=O)cc6)CC5)CC4)cc3OC)nc2N1C1CCCC1 (stereo partly drawn) ? > 7.70

Give recorded pIC50 with NCI-H69 (H69) cell line for the following molecule: CC[C@@H]1C(=O)N(C)c2cnc(Nc3ccc(-c4nnc(CNC5CCC(N6CCC(NCc7ccc(C8CCC(=O)NC8=O)cc7)CC6)CC5)o4)cc3OC)nc2N1C1CCCC1 (stereo partly drawn) ≥ 7.00

Item: CC[C@@H]1C(=O)N(C)c2cnc(Nc3ccc(C(=O)NC4CCN(C(=O)CCN5CCN(c6ccc(NC7CCC(=O)NC7=O)cc6)CC5)CC4)cc3OC(F)(F)F)nc2N1C1CCCC1 (stereo partly drawn) Test system: NCI-H69 (H69) cell line Read-out: pIC50 Value: ? ≥ 7.30

Request body: readout pIC50, system NCI-H69 (H69) cell line, query CC[C@@H]1C(=O)N(C)c2cnc(Nc3ccc(C(=O)NC4CCN(C(=O)C(N)CN5CCN(c6ccc(C7CCC(=O)NC7=O)cc6)CC5)CC4)cc3OC)nc2N1C1CCCC1 (stereo partly drawn) . Return the value. ≥ 7.30

Provide value of pIC50 for this record tested with NCI-H69 (H69) cell line: CC[C@@H]1C(=O)N(C)c2cnc(Nc3ccc(C(=O)NC4CCC(N5CCC(CNCc6ccc(C7CCC(=O)NC7=O)cc6)CC5)CC4)cc3OC)nc2N1C1CCCC1 (stereo partly drawn) ≥ 7.30

Please state recorded pIC50 (tested on NCI-H69 (H69) cell line) of CC[C@@H]1C(=O)N(C)c2cnc(Nc3ccc(C(=O)NC4CCC(N5CCN(CCc6ccc(NC7CCC(=O)NC7=O)cc6)CC5)CC4)cc3OC)nc2N1C1CCCC1 (stereo partly drawn) > 7.70

Lookup: pIC50 / NCI-H69 (H69) cell line / CC[C@@H]1C(=O)N(C)c2cnc(Nc3ccc(C(=O)NC4CCC(N5CCC(CNc6cccc7c6CN(C6CCC(=O)NC6=O)C7=O)CC5)CC4)cc3OC)nc2N1C1CCCC1 (stereo partly drawn) ≥ 7.30

Param readout = pIC50; param system = NCI-H69 (H69) cell line; param query = CC[C@@H]1C(=O)N(C)c2cnc(Nc3ccc(C(=O)NN4CCC(C5CCN(CCc6ccc(C7CCC(=O)NC7=O)cc6)CC5)CC4)cc3OC)nc2N1C1CCCC1 (stereo partly drawn) ; response: value > 7.70

Request - read-out pIC50 | tested on NCI-H69 (H69) cell line | molecule COc1cc(C(=O)NCC2CCN(CC3CCN(c4ccc(NC5CCC(=O)NC5=O)cc4)CC3)CC2)ccc1Nc1ncc2c(n1)N(C1CCCC1)CC(F)(F)C(=O)N2C (stereo not drawn) ≥ 7.00

Please tell me: pIC50 of CC[C@@H]1C(=O)N(C)c2cnc(Nc3ccc(C(=O)NC4CCC(N5CCC(NCc6ccc(C7CCC(=O)NC7=O)cc6)CC5)CC4)cc3OC)nc2N1C1CCCC1 (stereo partly drawn) , system NCI-H69 (H69) cell line? > 7.70
